src = the supplement of paper PMC5908809

List of percent inhibition of viability values.
test system: IMC-1 (IL-2 20 ng/mL); test: percent inhibition of viability; higher = more inhibition; details: 72 h; 100 nM;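 further: normalised to DMSO-only wells as negative and benzethonium chloride as positive control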
Dear colleague, please return just the value in %, with no unit written.

Recorded results for 5 compounds are shown here.
compound	target.system	quantity	reported.measurement
COc1cc(OC)c(/C=C/S(=O)(=O)Cc2ccc(OC)c(NCC(=O)O)c2)c(OC)c1 [Rigosertib] (max concentration tested 10000 nM)	IMC-1 (IL-2 20 ng/mL)	percent inhibition of viability	93.8
CC(C)(C)NC(=O)[C@H]1CC[C@H]2[C@@H]3CC[C@H]4NC(=O)C=C[C@]4(C)[C@H]3CC[C@]12C [Finasteride] (max concentration tested 10000 nM)	IMC-1 (IL-2 20 ng/mL)	percent inhibition of viability	-1.34
O=C1NC(=O)[C@@H](c2cn3c4c(cccc24)CCC3)[C@@H]1c1c[nH]c2ccccc12 [Tivantinib] (max concentration tested 1000 nM)	IMC-1 (IL-2 20 ng/mL)	percent inhibition of viability	0.97
Cn1c(=O)n(-c2ccc(C(C)(C)C#N)cc2)c2c3cc(-c4cnc5ccccc5c4)ccc3ncc21 [Dactolisib] (max concentration tested 1000 nM)	IMC-1 (IL-2 20 ng/mL)	percent inhibition of viability	8.63
COc1cccc2c1C(=O)c1c(O)c3c(c(O)c1C2=O)C[C@@](O)(/C(CO)=N/NC(=O)CCCCCN1C(=O)C=CC1=O)C[C@@H]3O[C@H]1C[C@H](N)[C@H](O)[C@H](C)O1 [Aldoxorubicin] (max concentration tested 1000 nM)	IMC-1 (IL-2 20 ng/mL)	percent inhibition of viability	86.5

Give reported percent inhibition of viability value for CCN(CC)CCOc1ccc(C(=C(Cl)c2ccccc2)c2ccccc2)cc1 [Clomifene] (max concentration tested 10000 nM)
4.94

Given Cn1cc(C2=C(c3cn(C4CCN(Cc5ccccn5)CC4)c4ccccc34)C(=O)NC2=O)c2ccccc21 [Enzastaurin] (max concentration tested 10000 nM) , respond with its percent inhibition of viability.
0.18

# return recorded percent inhibition of viability for entry Cc1cc2c(F)c(Oc3ncnn4cc(OC[C@@H](C)O)c(C)c34)ccc2[nH]1 [Brivanib] (max concentration tested 1000 nM)
-3.91

Note down percent inhibition of viability recorded for Cc1cccc(-c2nn3c(c2-c2ccnc4ccc(C(N)=O)cc24)CCC3)n1 [Galunisertib] (max concentration tested 1000 nM)
-8.99

Could you please provide reported percent inhibition of viability for NC1(c2ccc(-c3nc4ccn5c(=O)[nH]nc5c4cc3-c3ccccc3)cc2)CCC1 [MK-2206] (max concentration tested 1000 nM) ? Thanks!
-1.78

Please list percent inhibition of viability recorded for the compound CCN(CC)CCNC(=O)c1c(C)[nH]c(/C=C2\C(=O)Nc3ccc(F)cc32)c1C [Sunitinib] (max concentration tested 1000 nM)
-9.74
